Give measured Activity for each item. Keep answers brief.
# Tested on: Rattus norvegicus
# method.description: Inhibition of AII induced mean arterial blood pressure in rat assessed as vasoconstrictor at 1 mg/kg, po
# Type: functional
Reply numerically in mmHg, unit not repeated.

Find the measured Activity: item `CCCCc1nc2ccc([C@@]3(C(=O)N(C)C)C[C@H]4CCCN4O3)cc2c(=O)n1Cc1ccc(-c2ccccc2-c2nnn[nH]2)cc1` , target or system Rattus norvegicus. 55

What is its Activity for Rattus norvegicus? Entry: `CCCCc1nc2ccc([C@@]3(C(=O)O)C[C@H]4CCCN4O3)cc2c(=O)n1Cc1ccc(-c2ccccc2-c2nnn[nH]2)cc1` 55

Please state recorded Activity (tested on Rattus norvegicus) of `CCCCc1nc2ccc([C@@]3(c4ccccc4)C[C@H]4CCCN4O3)cc2c(=O)n1Cc1ccc(-c2ccccc2-c2nnn[nH]2)cc1` 55

Give the reported Activity for `CCCCc1nc2ccc([C@@]3(C)C[C@H]4CCCN4O3)cc2c(=O)n1Cc1ccc(-c2ccccc2-c2nn[nH]n2)cc1` (system: Rattus norvegicus). 55

Any idea what Activity came out for `CCCCc1nc2ccc([C@@]3(C(=O)N4CCCCC4)C[C@H]4CCCN4O3)cc2c(=O)n1Cc1ccc(-c2ccccc2-c2nnn[nH]2)cc1` on Rattus norvegicus? 55

Param readout= Activity; system= Rattus norvegicus; entry= `CCCCc1nc2ccc([C@]3(C)C[C@H]4CCCN4O3)cc2c(=O)n1Cc1ccc(-c2ccccc2-c2nn[nH]n2)cc1` ; returns value. 55

Request - read-out Activity | tested on Rattus norvegicus | compound `CCCCc1nc2ccc([C@@]3(C(=O)N4CCCC4)C[C@H]4CCCN4O3)cc2c(=O)n1Cc1ccc(-c2ccccc2-c2nnn[nH]2)cc1` 55
